The measured values listed here are drawn from ChEMBL document CHEMBL1240390.

Experimental Details: Half life in ICR mouse at 5 mg/kg, ip
Type: ADME, organism-based
Parameters: dose 5 mg/kg, route intraperitoneal
Condition Details: in vivo
Assay Readout: half-life
Answers without a unit are incomplete; give the number and then its unit.

Request the reported half-life associated with CN[C@H]1C(=O)N[C@@H]2Cc3ccc(cc3)Oc3cc4cc(c3O[C@@H]3O[C@H](C(=O)O)[C@@H](O)[C@H](O)[C@H]3NC(=O)CCCCCCCCC(C)C)Oc3ccc(cc3Cl)[C@@H](O)[C@@H]3NC(=O)[C@H](NC(=O)[C@@H]4NC(=O)[C@@H](NC2=O)c2cc(cc(O)c2Cl)Oc2cc1ccc2O)c1ccc(O)c(c1)-c1c(O[C@H]2O[C@H](CO)[C@@H](O)[C@H](O)[C@@H]2O)cc(O)cc1[C@@H](C(=O)NCCCN(C)C)NC3=O
53.4 h

---

Experimental Details: Half life in ICR mouse at 20 mg/kg, ip
Format: ADME, organism-based
Design: dose 20 mg/kg, route intraperitoneal
Condition Details: in vivo
Assay Readout: half-life (h)
# number only, unit h dropped from output

Request the reported half-life associated with CN[C@H]1C(=O)N[C@@H]2Cc3ccc(cc3)Oc3cc4cc(c3O[C@@H]3O[C@H](C(=O)O)[C@@H](O)[C@H](O)[C@H]3NC(=O)CCCCCCCCC(C)C)Oc3ccc(cc3Cl)[C@@H](O)[C@@H]3NC(=O)[C@H](NC(=O)[C@@H]4NC(=O)[C@@H](NC2=O)c2cc(cc(O)c2Cl)Oc2cc1ccc2O)c1ccc(O)c(c1)-c1c(O[C@H]2O[C@H](CO)[C@@H](O)[C@H](O)[C@@H]2O)cc(O)cc1[C@@H](C(=O)NCCCN(C)C)NC3=O [DALBAVANCIN]
53.4

---

Experimental Details: AUC (0-infinity) in ICR mouse at 20 mg/kg, iv
Type: ADME, organism-based
Parameters: time infinity, dose 20 mg/kg, route intravenous
Condition Details: plasma
Assay Readout: AUC(0-inf) (µg·h/mL)
# number only, unit µg·h/mL dropped from output

Request the reported AUC(0-inf) associated with CN[C@H]1C(=O)N[C@@H]2Cc3ccc(cc3)Oc3cc4cc(c3O[C@@H]3O[C@H](C(=O)O)[C@@H](O)[C@H](O)[C@H]3NC(=O)CCCCCCCCC(C)C)Oc3ccc(cc3Cl)[C@@H](O)[C@@H]3NC(=O)[C@H](NC(=O)[C@@H]4NC(=O)[C@@H](NC2=O)c2cc(cc(O)c2Cl)Oc2cc1ccc2O)c1ccc(O)c(c1)-c1c(O[C@H]2O[C@H](CO)[C@@H](O)[C@H](O)[C@@H]2O)cc(O)cc1[C@@H](C(=O)NCCCN(C)C)NC3=O [DALBAVANCIN]
1070

---

Experimental Details: Plasma concentration in ICR mouse at 20 mg/kg, ip after 6 days
Assay type: ADME, organism-based
Parameters: dose 20 mg/kg, route intraperitoneal
Assay Readout: concentration at 144 h

Request the reported concentration at 144 h associated with CN[C@H]1C(=O)N[C@@H]2Cc3ccc(cc3)Oc3cc4cc(c3O[C@@H]3O[C@H](C(=O)O)[C@@H](O)[C@H](O)[C@H]3NC(=O)CCCCCCCCC(C)C)Oc3ccc(cc3Cl)[C@@H](O)[C@@H]3NC(=O)[C@H](NC(=O)[C@@H]4NC(=O)[C@@H](NC2=O)c2cc(cc(O)c2Cl)Oc2cc1ccc2O)c1ccc(O)c(c1)-c1c(O[C@H]2O[C@H](CO)[C@@H](O)[C@H](O)[C@@H]2O)cc(O)cc1[C@@H](C(=O)NCCCN(C)C)NC3=O
≥ 0.4 µg/mL

---

Experimental Details: Cmax in ICR mouse at 5 mg/kg, ip after 2 hrs
Format: ADME, organism-based
Set-up: dose 5 mg/kg, route intraperitoneal
Condition Details: in vivo
Assay Readout: Cmax (µg/mL)
# number only, unit µg/mL dropped from output

Request the reported Cmax associated with CN[C@H]1C(=O)N[C@@H]2Cc3ccc(cc3)Oc3cc4cc(c3O[C@@H]3O[C@H](C(=O)O)[C@@H](O)[C@H](O)[C@H]3NC(=O)CCCCCCCCC(C)C)Oc3ccc(cc3Cl)[C@@H](O)[C@@H]3NC(=O)[C@H](NC(=O)[C@@H]4NC(=O)[C@@H](NC2=O)c2cc(cc(O)c2Cl)Oc2cc1ccc2O)c1ccc(O)c(c1)-c1c(O[C@H]2O[C@H](CO)[C@@H](O)[C@H](O)[C@@H]2O)cc(O)cc1[C@@H](C(=O)NCCCN(C)C)NC3=O [DALBAVANCIN]
15.2

---

Experimental Details: AUC (0-infinity) in ICR mouse at 20 mg/kg, ip
Format: ADME, organism-based
Parameters: time infinity, dose 20 mg/kg, route intraperitoneal
Condition Details: plasma
Assay Readout: AUC(0-inf) (µg·h/mL)
# number only, unit µg·h/mL dropped from output

Request the reported AUC(0-inf) associated with CN[C@H]1C(=O)N[C@@H]2Cc3ccc(cc3)Oc3cc4cc(c3O[C@@H]3O[C@H](C(=O)O)[C@@H](O)[C@H](O)[C@H]3NC(=O)CCCCCCCCC(C)C)Oc3ccc(cc3Cl)[C@@H](O)[C@@H]3NC(=O)[C@H](NC(=O)[C@@H]4NC(=O)[C@@H](NC2=O)c2cc(cc(O)c2Cl)Oc2cc1ccc2O)c1ccc(O)c(c1)-c1c(O[C@H]2O[C@H](CO)[C@@H](O)[C@H](O)[C@@H]2O)cc(O)cc1[C@@H](C(=O)NCCCN(C)C)NC3=O [DALBAVANCIN]
848

---

Experimental Details: AUC in patient with skin and soft tissue infections at 1000 mg, iv after 7 days
Assay type: ADME, organism-based
Condition Details: human, plasma
Assay Readout: AUC at 168 h (µg·h/mL)
# number only, unit µg·h/mL dropped from output

Request the reported AUC at 168 h associated with CN[C@H]1C(=O)N[C@@H]2Cc3ccc(cc3)Oc3cc4cc(c3O[C@@H]3O[C@H](C(=O)O)[C@@H](O)[C@H](O)[C@H]3NC(=O)CCCCCCCCC(C)C)Oc3ccc(cc3Cl)[C@@H](O)[C@@H]3NC(=O)[C@H](NC(=O)[C@@H]4NC(=O)[C@@H](NC2=O)c2cc(cc(O)c2Cl)Oc2cc1ccc2O)c1ccc(O)c(c1)-c1c(O[C@H]2O[C@H](CO)[C@@H](O)[C@H](O)[C@@H]2O)cc(O)cc1[C@@H](C(=O)NCCCN(C)C)NC3=O
756
